Test: Antiviral activity against Influenza A virus (A/Virginia/ATCC3/2009(H1N1)) infected in MDCK cells assessed as inhibition of virus-induced cytopathicity after 72 hrs by MTS assay
Type: functional, cell-based, Influenza A virus (A/Virginia/03/2009(H1N1))
Cut-off 8 µM on EC50: below means MET, at or above means NOT MET.

Illustrative cases are given below, each with its answer.
# smiles representation, assigned label
measured = [
    ("CCc1ccccc1OCCN1CCCCC1", "MET"),
    ("CCc1ccccc1NCCN1CCCCCC1", "MET"),
    ("COc1ccccc1NCCN1CCCCC1", "NOT MET"),
    ("NC(=O)c1ncn([C@@H]2O[C@H](CO)[C@@H](O)[C@H]2O)n1", "NOT MET"),
    ("CC(C)c1ccccc1NCC12CC3CC(CC(C3)C1)C2", "MET"),
    ("CCc1ccccc1NCC12CC3CC(CC(C3)C1)C2", "MET"),
    ("CC(C)c1ccccc1OCCN1CCCCCC1", "MET"),
    ("CC(C)(C)c1ccccc1NCCN1CCCCC1", "NOT MET"),
    ("O=C(Nc1ccc(OCc2ccccc2)cc1)C12CC3CC(CC(C3)C1)C2", "NOT MET"),
    ("OC12CC3CC(C1)CC(CNc1ccccc1)(C3)C2", "NOT MET"),
]

Q) # strict comparison: is reported EC50 < 8 µM? input = FC(F)(F)c1ccccc1NCCN1CCCCCC1
A) MET

Q) # strict comparison: is reported EC50 < 8 µM? input = FC(F)(F)c1ccccc1NCCN1CCCCC1
A) MET

* * *

Quick reference for MCC at 72 h among some molecules
Test: Cytotoxicity against MDCK cells assessed as effect on cell morphology after 72 hrs by microscopic method
Assay type: cell-based, Canis lupus familiaris
Conditions: dog
// note: answer is a bare numeric in µM

# smiles representation, unit name, MCC at 72 h
rows = [
    ("Fc1cc(F)cc(NCC23CC4CC(CC(C4)C2)C3)c1", "µM", 2),
]

Q) // query MCC at 72 h value for entry CC(C)c1ccccc1NCC12CC3CC(CC(C3)C1)C2
A) 4

Q) // query MCC at 72 h value for entry CCc1ccccc1NCC12CC3CC(CC(C3)C1)C2
A) 2

Q) // query MCC at 72 h value for entry CCc1ccccc1NCCN1CCCCC1
A) 100

Q) // query MCC at 72 h value for entry CCc1ccccc1NCCN1CCCCCC1
A) 20

Q) // query MCC at 72 h value for entry CCc1ccccc1OCCN1CCCCC1
A) 100

Q) // query MCC at 72 h value for entry CC(C)c1ccccc1OCCN1CCCCCC1
A) 20

* * *

Experiment: Antiviral activity against Influenza A virus (A/Virginia/ATCC3/2009(H1N1)) infected in MDCK cells assessed as inhibition of virus-induced cytopathicity after 72 hrs by MTS assay
Type: functional, cell-based, Influenza A virus (A/Virginia/03/2009(H1N1))
readout label: pEC50
Reminder that pEC50 is minus the log10 of a molar concentration.

# smiles representation, pEC50
data = [
    ("CC(C)c1ccccc1NCCN1CCCC1", 5.10),
]

Q) // query pEC50 value for entry CC(C)c1ccccc1NCCN1CCCCCC1
A) 5.89

Q) // query pEC50 value for entry CC(C)c1ccccc1NCCN1CCCCC1
A) 5.82

Q) // query pEC50 value for entry CC(C)c1ccccc1OCCN1CCCCC1
A) 6.00

Q) // query pEC50 value for entry Brc1ccccc1NCCN1CCCCC1
A) 4.33

Q) // query pEC50 value for entry CCc1ccccc1NCCN1CCCCC1
A) 5.02

Q) // query pEC50 value for entry Fc1cc(F)cc(NCC23CC4CC(CC(C4)C2)C3)c1
A) 6.92
